- Protocol: growth suppression of PTEN-deleted HCT116, pilot screen, cell-based, HCT116 clonal line, CellTiter-Glo (AID 824);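 also: 0% = 20 µM Hyamine control and 100% = vehicle cell control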
- Condition Details: 60 h, at 10 µM, stronger effect = lower value
Results filed as inconclusive are left out.
Here the recorded viability is given for each entry.
Your answer should be a plain number; it is taken to be in %.

Study these solved cases before continuing.
• CN(C)S(=O)(=O)Nc1ccc2c(c1)Cc1ccccc1-2 = 88.5
• Cc1cc(C(=O)N2CCN(S(C)(=O)=O)CC2)sc1-c1ccccc1 = 94
• CC(C)CC1(C(=O)O)NC(c2ccccc2O)C2C(=O)N(C(C)C)C(=O)C21 (stereo not drawn) = 99.3
• O=S(=O)(NCCO)c1cccc2cccnc12 = 85.4
• COCCCNC(=O)COc1cc(C)c(Cl)c(C)c1 = 96.3
• Cc1ccc2oc(=O)c3cnn(CC(=O)N4CCCCCC4)c3c2c1 = 89.1

Kindly consider the entry below.
Prompt: viability lookup needed for `CN(C)CCNC(=O)c1cc2c(=O)n(C)c3ccccc3c2n1C` , thanks.
Completion: 54.4

----------
- Protocol: growth suppression of beta-catenin knockout HCT116, pilot screen, human colon tumor cells (AID 823);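 also: 0% = wells killed by 20 µM Hyamine and 100% = untreated DMSO cell wells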
- Condition Details: CellTiter-Glo, 60 h, at 10 µM, stronger effect = lower value
Results filed as inconclusive are left out.
Measured Property: viability (%)
Your answer should be a plain number; it is taken to be in %.

Study these solved cases before continuing.
• COc1ccc(C2(C(F)(F)F)NC(=O)N(C)C(=O)N2C)cc1 (stereo unspecified) = 99
• CCC(Sc1nncn1C)C(=O)Nc1nnc(-c2ccccc2Cl)s1 (stereo unspecified) = 103
• CCCCNC(=O)c1ccc2nc(-c3ccco3)c(-c3ccco3)nc2c1 = 104

Kindly consider the entry below.
Prompt: viability lookup needed for `OCCCc1nc2ccccc2n1CCOc1ccccc1` , thanks.
Completion: 88.5

----------
- Protocol: growth suppression of beta-catenin knockout HCT116, pilot screen, human colon tumor cells (AID 823);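 also: 0% = wells killed by 20 µM Hyamine and 100% = untreated DMSO cell wells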
- Condition Details: CellTiter-Glo, 60 h, at 10 µM, stronger effect = lower value
Results filed as inconclusive are left out.
Criterion: viability strictly under 90%. Met: criterion met. Not met: criterion not met.

- CNC(=O)N(C1=NCC(C)(C)S1)c1ccc(F)c(Cl)c1: criterion met
- O=C(Cn1nc(Cc2cccnc2)c2ccccc2c1=O)NCc1ccc2c(c1)OCO2: criterion not met
- CCCSC1=C(C#N)C(c2ccc(O)c(OC)c2)CC(=O)N1 (stereo unspecified): criterion not met
- COc1cc2ccccc2cc1-c1nnc(COc2ccccc2)o1: criterion not met

Prompt: Please check: viability for `COC(=O)c1cc(-c2ccc3c(c2)OCO3)nc2ccccc12` , strictly under 90% or not?
Completion: criterion met

Prompt: Please check: viability for CCOC(=O)C1=C(C)NC2=C(C(=O)CCC2)C1c1cc(OC)ccc1OC (stereo unspecified) , strictly under 90% or not?
Completion: criterion not met

Prompt: Please check: viability for CCC1CCCCN1C(=O)c1cc2cc(Br)ccc2oc1=O (stereo unspecified) , strictly under 90% or not?
Completion: criterion not met

Prompt: Please check: viability for `CCC(=O)Nc1nnc(-c2ccc(OC)cc2)o1` , strictly under 90% or not?
Completion: criterion not met

Prompt: Please check: viability for `Cc1noc(C)c1S(=O)(=O)N(CC(=O)NCc1ccc2c(c1)OCO2)c1ccc(C(C)C)cc1` , strictly under 90% or not?
Completion: criterion met

The measurements presented in this section are drawn from PubChem BioAssay.
